This collection of values is drawn from patent US10112940B2.

Provide the recorded IC50 for the entries that follow.
system: KYSE-150 esophageal carcinoma cell line; assay: In vitro cell-based assay: BrdU incorporation cell proliferation ELISA; parameters: species or system human; conditions: Homo sapiens, KYSE-150 cells, 168 hours compound incubation, read-out: Cellular IC50

# count of solved cases: 4
CCc1ccc(N(C)c2ccc(Oc3nc(O)c4ccncc4n3)cc2)cc1OCCN(C)C [Example 65] ... > 10000 nM
CN(c1ccc(Oc2nc(O)c3ccncc3n2)cc1)c1ccc(C2CC2)cc1 [Example 42] ... 100 to 1000 nM
CN(c1ccc(Oc2nc(O)c3ccncc3n2)cc1)c1cccc(N2CCOCC2)c1 [Example 19] ... 100 to 1000 nM
Cc1ccc(N(C)c2ccc(Oc3nc(O)c4ccncc4n3)cc2)nc1 [Example 43] ... 100 to 1000 nM

Please state, for each entry, its recorded IC50.
1. CC[C@H](C)c1ccc(N(C)c2ccc(Oc3nc(O)c4ccncc4n3)cc2)cc1 [Example 77]
2. CN1CCN(c2cccc(N(C)c3ccc(Oc4nc(O)c5ccncc5n4)cc3)c2)CC1 [Example 79]
3. COCCN(c1ccc(Oc2nc(O)c3ccncc3n2)cc1)c1ccc(C(C)C)cc1 [Example 102]
4. CN(c1ccc(Oc2nc(O)c3ccncc3n2)cc1)c1cccc(C#N)c1 [Example 40]
5. Oc1nc(Oc2ccc3cn(Cc4ccccc4)nc3c2)nc2cnccc12 [Example 12]
6. CCN(c1ccccc1)c1ccc(Oc2nc(O)c3ccncc3n2)cc1 [Example 80]

# output
1. ≤ 100 nM
2. ≤ 100 nM
3. 100 to 1000 nM
4. > 10000 nM
5. 1000 to 10000 nM
6. 100 to 1000 nM

Please state, for each entry, its recorded IC50.
1. CN(c1ccc(Oc2nc(O)c3ccncc3n2)cc1)c1ccc(C(C)(C)CO)cc1 [Example 68]
2. COC(C)c1ccc(N(C)c2ccc(Oc3nc(O)c4ccncc4n3)cc2)cc1 (centres unmarked) [Example 36]
3. CC(c1ccc(N(C)c2ccc(Oc3nc(O)c4ccncc4n3)cc2)cc1)C1CC1 (centres unmarked) [Example 39]
4. CC(CCN)c1ccc(N(C)c2ccc(Oc3nc(O)c4ccncc4n3)cc2)cc1 (centres unmarked) [Example 71]
5. CN(C)c1ccc(N(C)c2ccc(Oc3nc(O)c4ccncc4n3)cc2)cc1 [Example 44]
6. Cc1ccc(N(C)c2ccc(Oc3nc(O)c4ccncc4n3)cc2)cc1C [Example 83]

# output
1. 100 to 1000 nM
2. 100 to 1000 nM
3. ≤ 100 nM
4. 1000 to 10000 nM
5. > 10000 nM
6. 100 to 1000 nM

Please state, for each entry, its recorded IC50.
1. CN(c1ccc(Oc2nc(O)c3ccncc3n2)cc1)c1ccnc(N2CCOCC2)c1 [Example 61]
2. CN(c1ccc(Oc2nc(O)c3ccncc3n2)cc1)c1ccc(N2CCCC2)cc1 [Example 49]
3. CNCC(C)c1ccc(N(C)c2ccc(Oc3nc(O)c4ccncc4n3)cc2)cc1 (centres unmarked) [Example 70]
4. CCc1ccc(N(C)c2ccc(Oc3nc(O)c4ccncc4n3)cc2)cc1OCCOC [Example 66]
5. Oc1nc(Oc2ccc3c(ccn3C3CCNCC3)c2)nc2cnccc12 [Example 104]
6. CN(c1ccccc1)c1cccc(Oc2nc(O)c3ccncc3n2)c1 [Example 7]

# output
1. > 10000 nM
2. 100 to 1000 nM
3. > 10000 nM
4. 1000 to 10000 nM
5. > 10000 nM
6. 1000 to 10000 nM

Please state, for each entry, its recorded IC50.
1. CN(c1ccc(Oc2nc(O)c3ccncc3n2)cc1)c1cncc(N2CCOCC2)c1 [Example 27]
2. CN(c1ccc(Oc2nc(O)c3ccncc3n2)cc1)c1cccc(S(C)(=O)=O)c1 [Example 56]
3. Oc1nc(Oc2ccc3c(ccn3Cc3ccccc3)c2)nc2cnccc12 [Example 4]
4. CN(CC1CCc2ccccc21)c1ccc(Oc2nc(O)c3ccncc3n2)cc1 (centres unmarked) [Example 62]
5. CCc1ccc(N(C)c2ccc(Oc3nc(O)c4ccncc4n3)cc2)cc1N1CCOCC1 [Example 59]

# output
> 10000 nM
> 10000 nM
100 to 1000 nM
1000 to 10000 nM
> 10000 nM
